measured on: huFXII-his (human) (UniProt P00748)
Sequence (P00748 20-615, form in doubt): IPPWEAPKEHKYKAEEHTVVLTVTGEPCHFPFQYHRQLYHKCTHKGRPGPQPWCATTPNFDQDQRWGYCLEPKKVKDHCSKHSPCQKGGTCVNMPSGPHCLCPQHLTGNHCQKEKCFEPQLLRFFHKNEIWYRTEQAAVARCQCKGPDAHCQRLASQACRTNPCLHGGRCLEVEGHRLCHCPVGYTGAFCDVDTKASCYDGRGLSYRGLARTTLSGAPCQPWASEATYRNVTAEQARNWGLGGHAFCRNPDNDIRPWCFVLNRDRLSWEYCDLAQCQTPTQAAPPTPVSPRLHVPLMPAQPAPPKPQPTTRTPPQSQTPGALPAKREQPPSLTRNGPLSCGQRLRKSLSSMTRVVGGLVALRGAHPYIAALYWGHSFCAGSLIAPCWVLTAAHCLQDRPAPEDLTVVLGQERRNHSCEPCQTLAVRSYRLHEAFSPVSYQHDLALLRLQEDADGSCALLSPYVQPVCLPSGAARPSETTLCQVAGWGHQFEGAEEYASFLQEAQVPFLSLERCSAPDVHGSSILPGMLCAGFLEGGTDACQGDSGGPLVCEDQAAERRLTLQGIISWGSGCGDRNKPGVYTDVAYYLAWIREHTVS
test method notes: cell-based or functional assay
quantity measured: IC50 of inhibition of cleavage of chemical substrate S2302 by FXIIa (OD405) (µg/mL)
One number for each entry, in µg/mL.

Could you tell me IC50 of inhibition of cleavage of chemical substrate S2302 by FXIIa (OD405) for each of these binders? They are listed below.
1. FX-Y17-Y3 (antibody, V domains shown) VH: EVQLLESGGGLVQPGGSLRLSCAGSGFSFGSQTMSWVRQAPGKGLEWVSSISYISGRTYYADSVKGRFTISRDNSKNTLYLQMNSLRAEDTAVYYCTKSHAFDVWGQGTMVTVSS VL: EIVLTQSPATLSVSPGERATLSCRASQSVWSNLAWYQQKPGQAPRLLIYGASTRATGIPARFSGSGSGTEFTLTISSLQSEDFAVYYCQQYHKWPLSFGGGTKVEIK
2. FX-Y17-Y22 (antibody, V domains shown) VH: EVQLLESGGGLVQPGGSLRLSCAGSGFSFGSQTMSWVRQAPGKGLEWVSSISYISGRTYYADSVKGRFTISRDNSKNTLYLQMNSLRAEDTAVYYCTRSHAFDVWGQGTMVTVSS VL: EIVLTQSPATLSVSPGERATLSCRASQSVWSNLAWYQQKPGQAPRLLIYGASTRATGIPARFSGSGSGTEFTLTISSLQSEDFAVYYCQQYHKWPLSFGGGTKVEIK

1. 0.0154
2. 0.0202
